target.of.assay: T1, Pax2 (Giardia lamblia, UniProt A8B733 1-302)
T1 sequence: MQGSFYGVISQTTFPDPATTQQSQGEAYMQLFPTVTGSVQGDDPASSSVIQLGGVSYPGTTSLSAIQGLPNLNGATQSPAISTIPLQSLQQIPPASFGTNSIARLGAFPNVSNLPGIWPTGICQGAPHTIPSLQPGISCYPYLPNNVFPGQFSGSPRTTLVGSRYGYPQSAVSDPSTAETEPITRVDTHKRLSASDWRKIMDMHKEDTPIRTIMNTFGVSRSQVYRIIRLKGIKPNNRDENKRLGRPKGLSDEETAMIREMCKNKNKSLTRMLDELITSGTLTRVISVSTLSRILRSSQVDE
experimental.details: EMSA; EMSA: 0.02 pmol 5'-32P probe, 5 ng protein, 20 ul, 0.5 ug poly(dI-dC), 15 min at room temperature, 6% acrylamide gel; buffer, salt and pH only by reference [31]
protocol.conditions: protein: recombinant; tags: C-terminal V5-His (pET101/D-TOPO); label: 5'-32P
outcome.measure: binding result

cwp1-90/-46 (dsDNA) DNA 1: CTGGCTAACAGTCTACAGTCTACAATTTACAGTATACAATCTACA DNA 2: TGTAGATTGTATACTGTAAATTGTAGACTGTAGACTGTTAGCCAG | binds
ran-81/-52 (dsDNA) DNA 1: CAGAAAAAGTTGTCAAGGAGGTGATAGCCG DNA 2: CGGCTATCACCTCCTTGACAACTTTTTCTG | no binding
poly(A) with TT insertion (dsDNA) DNA 1: AAAAAAAAAAATTAAAAAAAAAA DNA 2: TTTTTTTTTTAATTTTTTTTTTT | binds
cwp2-60/-31 (dsDNA) DNA 1: TAGACTGATGCTGTAGAGGTCAACAGATAA DNA 2: TTATCTGTTGACCTCTACAGCATCAGTCTA | no binding
poly(A) with T insertion (dsDNA) DNA 1: AAAAAAAAAAATAAAAAAAAAAA DNA 2: TTTTTTTTTTTATTTTTTTTTTT | binds

List reported binding result for each of these binders:
1. poly(A) (dsDNA) DNA 1: AAAAAAAAAAAAAAAAAAAAAAA DNA 2: TTTTTTTTTTTTTTTTTTTTTTT
2. myb2-60/-31 (dsDNA) DNA 1: TGGCTATGTATTTTTTCTTCTTCTACAGCT DNA 2: AGCTGTAGAAGAAGAAAAAATACATAGCCA

Result:
["binds", "no binding"]

// data source = paper PMC3280250
